B1: PTPRD (parent)
chain: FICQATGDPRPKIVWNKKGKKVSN

Variants of: B1
Assay: protein stability index of a GFP-peptide fusion (GPS, HEK-293T) (PSI 1-6); higher = more stable;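 note: lentivirally expressed fusions sorted by FACS into six bins by GFP to DsRed ratio, PSI derived from sequencing read proportions per bin multiplied by bin number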
Details: c terminus: a fixed tail appended
Record y whenever protein stability index is at 2 or higher; record n when lower.

G7W
y
P11K
n
Q4V
y
C3R
y
N24F
n
N16V
n
W15A
y
I13V
y
F1L
y
G7M
n
V22N
y
N24K
n
K17F
n
C3A
y
I2R
y
W15Q
y
V22Y
y
K21S
y
C3D
y
R10V
n
